# Measurement target: T1, human αvβ6 on 293F:huβ6 cells (human, UniProt P06756 31-1048; P18564 22-788)
# T1 chain 1: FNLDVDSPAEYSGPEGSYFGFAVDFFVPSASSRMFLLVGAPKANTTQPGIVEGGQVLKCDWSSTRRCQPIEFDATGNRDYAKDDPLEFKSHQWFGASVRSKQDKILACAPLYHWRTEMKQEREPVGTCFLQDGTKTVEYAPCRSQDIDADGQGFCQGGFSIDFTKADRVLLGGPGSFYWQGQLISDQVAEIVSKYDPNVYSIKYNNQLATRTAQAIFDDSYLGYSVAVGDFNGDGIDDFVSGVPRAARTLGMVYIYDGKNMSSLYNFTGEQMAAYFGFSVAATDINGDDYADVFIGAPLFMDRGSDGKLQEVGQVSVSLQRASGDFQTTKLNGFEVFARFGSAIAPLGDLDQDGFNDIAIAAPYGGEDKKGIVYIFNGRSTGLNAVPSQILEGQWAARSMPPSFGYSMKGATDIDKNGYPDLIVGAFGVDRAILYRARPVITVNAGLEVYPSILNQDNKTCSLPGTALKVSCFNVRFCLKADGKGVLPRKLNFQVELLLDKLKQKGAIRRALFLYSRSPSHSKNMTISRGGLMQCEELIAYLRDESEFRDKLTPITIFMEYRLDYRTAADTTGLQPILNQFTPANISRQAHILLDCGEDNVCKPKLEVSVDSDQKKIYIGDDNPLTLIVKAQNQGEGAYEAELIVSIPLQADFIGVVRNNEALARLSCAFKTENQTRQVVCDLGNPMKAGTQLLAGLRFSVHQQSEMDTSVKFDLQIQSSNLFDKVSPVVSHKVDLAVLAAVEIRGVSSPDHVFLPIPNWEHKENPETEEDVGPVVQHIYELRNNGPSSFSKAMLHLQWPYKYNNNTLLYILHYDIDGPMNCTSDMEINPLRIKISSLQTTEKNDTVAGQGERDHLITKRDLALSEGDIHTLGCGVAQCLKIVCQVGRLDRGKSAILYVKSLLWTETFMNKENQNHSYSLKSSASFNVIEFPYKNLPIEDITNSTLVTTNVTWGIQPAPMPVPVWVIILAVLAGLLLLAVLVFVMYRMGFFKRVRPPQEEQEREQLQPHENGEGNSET
# T1 chain 2: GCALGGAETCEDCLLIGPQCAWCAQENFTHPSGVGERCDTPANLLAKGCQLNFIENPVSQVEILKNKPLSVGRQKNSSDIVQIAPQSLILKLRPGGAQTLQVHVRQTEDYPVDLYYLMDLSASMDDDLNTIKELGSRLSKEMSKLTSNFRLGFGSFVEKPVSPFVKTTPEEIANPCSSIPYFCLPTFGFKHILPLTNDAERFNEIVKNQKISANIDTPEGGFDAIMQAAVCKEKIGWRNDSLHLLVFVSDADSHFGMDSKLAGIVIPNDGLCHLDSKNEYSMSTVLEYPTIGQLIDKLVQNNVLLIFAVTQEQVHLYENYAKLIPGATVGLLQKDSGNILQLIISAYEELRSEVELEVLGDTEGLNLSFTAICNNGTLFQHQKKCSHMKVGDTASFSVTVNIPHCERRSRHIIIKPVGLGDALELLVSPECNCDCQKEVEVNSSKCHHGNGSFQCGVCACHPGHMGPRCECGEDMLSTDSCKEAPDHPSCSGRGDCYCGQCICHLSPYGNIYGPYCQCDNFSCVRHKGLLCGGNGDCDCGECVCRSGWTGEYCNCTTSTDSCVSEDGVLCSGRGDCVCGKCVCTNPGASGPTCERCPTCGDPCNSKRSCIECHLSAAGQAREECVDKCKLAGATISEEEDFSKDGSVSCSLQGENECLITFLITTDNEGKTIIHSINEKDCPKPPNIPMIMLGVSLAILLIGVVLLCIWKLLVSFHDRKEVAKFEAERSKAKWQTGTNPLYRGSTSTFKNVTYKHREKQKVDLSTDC
# Protocol: competition binding on 293F cells; 2nM m2A2-AF647 competitor
pEC50: −log10 of the molar value.
Reported pEC50 values for the following binders.
Readout type: pEC50

Binder	Recorded measurement
h2A2 HCLG humanized antibody (antibody, human IgG1, kappa, V domains shown, Labelled with AlexaFluor-647 in the saturation assay; also called humanized 2A2 HCLG) VH: QFQLVQSGAEVKKPGASVKVSCKASGYSFTDYNVNWVRQAPGQGLEWIGVINPKYGTTRYNQKFKGRATLTVDKSTSTAYMELSSLRSEDTAVYYCTRGLNAWDYWGQGTLVTVSS VL: DIQMTQSPSSLSASVGDRVTITCGASENIYGALNWYQQKPGKAPKLLIYGATNLEDGVPSRFSGSGSGRDYTFTISSLQPEDIATYYCQNVLTTPYTFGQGTKLEIKR	9.00
murine monoclonal antibody 2A2 (antibody, V domains shown, Mouse hybridoma IgG; also called m2A2; mouse 2A2) VH: EFQLQQSGPELVKPGASVKISCKASGYSFTDYNVNWVKQSNGKSLEWIGVINPKYGTTRYNQKFKGKATLTVDKPSSTAYMQLNSLTSEDSAVYYCTRGLNAWDYWGQGASVTVSS VL: DIQMTQSPASLSASVGETVTITCGASENIYGALNWYQRKQGKSPQLLIYGATNLADGMSSRFSGSGSGRQYSFKISSLHPDDVATYYCQNVLTTPYTFGGGTKLEIK	8.70
